Ref: ChEMBL document CHEMBL5608194

Examples of compounds with documented Activity follow.
Test system: SH-SY5Y
test.method.notes: Neuroprotective activity against ATRA-differentiated and 3-NPA induced cell death in human SH-SY5Y cells assessed as cell death at 1 uM incubated for 48 hrs by propidium iodide staining based fluorescence assay (reference value: 100%)
Assay type: functional
I only need the number, in %, no unit after it.

Please review the following examples before continuing.
Cc1cccn2c3c(nc12)-c1ccccc1NC31CCC(C)CC1 (configuration not stated) :: 65
Cc1ccn2c3c(nc2c1)-c1ccccc1NC3(C)C :: 62.4
CC1CCC2(CC1)Nc1ccccc1-c1nc3ccc(Br)cn3c12 (configuration not stated) :: 71.3
Brc1ccc2nc3c(n2c1)C1(CCCC1)Nc1ccccc1-3 :: 63.9
Cc1cccn2c3c(nc12)-c1ccccc1NC31CCCCC1 :: 66.1
c1ccc2c(c1)NC1(CCCCCC1)c1c-2nc2ccccn12 :: 69.9
Cc1ccn2c3c(nc2c1)-c1ccccc1NC31CCCC1 :: 59
Brc1ccc2nc3c(n2c1)C1(CCCCCC1)Nc1ccccc1-3 :: 81.4

For reference, reported Activity for `CC1(C)Nc2ccccc2-c2nc3ccccn3c21` stands at 83.1

For reference, reported Activity for CC1CCC2(CC1)Nc1ccccc1-c1nc3ccccn3c12 (configuration not stated) stands at 64.2

For reference, reported Activity for `Brc1ccc2nc3c(n2c1)C1(CCCCC1)Nc1ccccc1-3` stands at 88.4

For reference, reported Activity for `Cc1cccn2c3c(nc12)-c1ccccc1NC31CCCCCC1` stands at 71

---

System: SH-SY5Y
test.method.notes: Neuroprotective activity against ATRA-differentiated and 3-NPA induced cell death in human SH-SY5Y cells assessed as cell death at 0.1 uM incubated for 48 hrs by propidium iodide staining based fluorescence assay (reference value: 100%)
Type: functional
Examples of compounds with documented Activity follow.
I only need the number, in %, no unit after it.

Please review the following examples before continuing.
c1ccc2c(c1)NC1(CCCCCC1)c1c-2nc2ccccn12 :: 74
Cc1cccn2c3c(nc12)-c1ccccc1NC31CCCCCC1 :: 83.8
Cc1cccn2c3c(nc12)-c1ccccc1NC31CCCCC1 :: 76.6
Cc1ccn2c3c(nc2c1)-c1ccccc1NC3(C)C :: 86.2

For reference, reported Activity for `c1ccc2c(c1)NC1(CCCCC1)c1c-2nc2ccccn12` stands at 78.5

For reference, reported Activity for `Brc1ccc2nc3c(n2c1)C1(CCCCC1)Nc1ccccc1-3` stands at 97.7

For reference, reported Activity for CC1CCC2(CC1)Nc1ccccc1-c1nc3ccc(Br)cn3c12 (stereo not drawn) stands at 92.1

For reference, reported Activity for `Cc1cccn2c3c(nc12)-c1ccccc1NC31CCCC1` stands at 79.2

---

Observed IC50 values for Acetylcholinesterase (Electrophorus electricus) are listed in what follows.
Report the figure along with its unit, number first.

O=c1c2ccccc2[se]n1-c1ccccc1 :: 12.7 µM

# next molecule below
# lookup: `Brc1ccc2nc3c(n2c1)C1(CCCCC1)Nc1ccccc1-3` on Acetylcholinesterase (Electrophorus electricus), IC50 = 20 µM

---

Examples of compounds with documented Activity follow.
Tested on: SH-SY5Y
test.method.notes: Neuroprotective activity against ATRA-differentiated and MPP+ induced cell death in human SH-SY5Y cells assessed as cell death at 10 uM incubated for 24 hrs by propidium iodide staining based fluorescence assay (reference value: 100%)
Type: functional
I only need the number, in %, no unit after it.

Please review the following examples before continuing.
Brc1ccc2nc3c(n2c1)C1(CCCCCC1)Nc1ccccc1-3 :: 96.4
c1ccc2c(c1)NC1(CCCCCC1)c1c-2nc2ccccn12 :: 73.6
CC1CCC2(CC1)Nc1ccccc1-c1nc3ccccn3c12 (configuration not stated) :: 97.3
O=c1c2ccccc2[se]n1-c1ccccc1 :: 27.5
Cc1ccn2c3c(nc2c1)-c1ccccc1NC31CCCC1 :: 68.9

For reference, reported Activity for Cc1cccn2c3c(nc12)-c1ccccc1NC31CCC(C)CC1 (configuration not stated) stands at 94

For reference, reported Activity for `Cc1cccn2c3c(nc12)-c1ccccc1NC31CCCC1` stands at 52.8

For reference, reported Activity for `Cc1ccn2c3c(nc2c1)-c1ccccc1NC3(C)C` stands at 59.7

---

Examples of compounds with documented Activity follow.
Tested on: SH-SY5Y
test.method.notes: Cytotoxicity against human SH-SY5Y cells assessed as cell death at 10 uM incubated for 72 hrs by propidium iodide staining based fluorescence assay
Format: toxicity

Please review the following examples before continuing.
c1ccc2c(c1)NC1(CCCC1)c1c-2nc2ccccn12 :: 10.1%
Brc1ccc2nc3c(n2c1)C1(CCCCC1)Nc1ccccc1-3 :: 12.3%
CC1CCC2(CC1)Nc1ccccc1-c1nc3ccccn3c12 (stereo not drawn) :: 12%
O=c1c2ccccc2[se]n1-c1ccccc1 [EBSELEN] :: 18.3%
Cc1cccn2c3c(nc12)-c1ccccc1NC31CCC(C)CC1 (stereo not drawn) :: 9%

# next compound below
For reference, reported Activity for `Brc1ccc2nc3c(n2c1)C1(CCCC1)Nc1ccccc1-3` stands at 12.2%

---

experimental.system: Acetylcholinesterase (Electrophorus electricus)
Sequence (O42275 whole entry): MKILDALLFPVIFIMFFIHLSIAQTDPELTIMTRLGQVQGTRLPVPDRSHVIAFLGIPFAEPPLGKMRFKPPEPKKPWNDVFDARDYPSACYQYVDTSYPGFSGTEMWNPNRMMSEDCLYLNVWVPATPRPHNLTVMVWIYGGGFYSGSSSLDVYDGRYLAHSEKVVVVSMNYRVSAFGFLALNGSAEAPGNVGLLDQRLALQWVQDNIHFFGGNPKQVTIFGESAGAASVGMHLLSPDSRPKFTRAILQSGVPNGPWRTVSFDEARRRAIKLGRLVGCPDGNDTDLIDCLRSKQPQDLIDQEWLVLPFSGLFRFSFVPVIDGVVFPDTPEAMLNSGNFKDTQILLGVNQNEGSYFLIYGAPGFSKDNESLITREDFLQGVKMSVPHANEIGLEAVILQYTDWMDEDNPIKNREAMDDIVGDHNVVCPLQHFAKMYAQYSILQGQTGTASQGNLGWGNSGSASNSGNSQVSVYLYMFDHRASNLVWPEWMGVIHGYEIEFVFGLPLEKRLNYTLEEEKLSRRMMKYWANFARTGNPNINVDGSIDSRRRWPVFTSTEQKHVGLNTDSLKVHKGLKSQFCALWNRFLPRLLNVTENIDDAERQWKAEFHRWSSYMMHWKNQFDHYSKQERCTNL
test.method.notes: Inhibition of electric eel AChE using acetylthiocholine as substrate by Ellman's method
recorded.endpoint: pIC50
Scale: negative log10 of molar concentration, which is what pIC50 denotes.

Please review the following examples before continuing.
c1ccc2c(c1)NC1(CCCCC1)c1c-2nc2ccccn12 :: 4.47
Brc1ccc2nc3c(n2c1)C1(CCCC1)Nc1ccccc1-3 :: 4.57
CC1(C)Nc2ccccc2-c2nc3ccccn3c21 :: 4.32

For reference, reported pIC50 for `Cc1ccn2c3c(nc2c1)-c1ccccc1NC31CCCCC1` stands at 4.79

---

Examples of compounds with documented Activity follow.
Test system: SH-SY5Y
test.method.notes: Neuroprotective activity against ATRA-differentiated and MPP+ induced cell death in human SH-SY5Y cells assessed as cell death at 10 uM incubated for 24 hrs by propidium iodide staining based fluorescence assay (reference value: 100%)
Format: functional
I only need the number, in %, no unit after it.

Please review the following examples before continuing.
Cc1ccn2c3c(nc2c1)-c1ccccc1NC31CCC(C)CC1 (centres undefined) :: 105.9
CC1(C)Nc2ccccc2-c2nc3ccccn3c21 :: 26.2

For reference, reported Activity for `Cc1cccn2c3c(nc12)-c1ccccc1NC31CCCCCC1` stands at 91.4

For reference, reported Activity for `Brc1ccc2nc3c(n2c1)C1(CCCC1)Nc1ccccc1-3` stands at 27.5

---

Tested on: SH-SY5Y
test.method.notes: Cytotoxicity against human SH-SY5Y cells assessed as cell death at 10 uM incubated for 72 hrs by propidium iodide staining based fluorescence assay
Assay type: toxicity
Examples of compounds with documented Activity follow.
I only need the number, in %, no unit after it.

Cc1cccn2c3c(nc12)-c1ccccc1NC31CCCC1 :: 8.2
Cc1ccn2c3c(nc2c1)-c1ccccc1NC31CCCCC1 :: 11.4
c1ccc2c(c1)NC1(CCCCC1)c1c-2nc2ccccn12 :: 12.2

For reference, reported Activity for `Cc1cccn2c3c(nc12)-c1ccccc1NC3(C)C` stands at 11

For reference, reported Activity for `Cc1cccn2c3c(nc12)-c1ccccc1NC31CCCCCC1` stands at 9.3

For reference, reported Activity for `Cc1cccn2c3c(nc12)-c1ccccc1NC31CCCCC1` stands at 9.2

For reference, reported Activity for `Cc1ccn2c3c(nc2c1)-c1ccccc1NC31CCCC1` stands at 10.4
